target: Carbonic anhydrase 9 (Homo sapiens); assay: Inhibition of human recombinant carbonic anhydrase 9 catalytic domain preincubated for 15 mins by CO2 hydration method
Test Readout: Ki (µM)

1. COc1ccc2c(CC(=O)Nc3ccc(S(N)(=O)=O)cc3)cc(=O)oc2c1
2. COc1ccc2c(CC(=O)Nc3cc(C(F)(F)F)c(S(N)(=O)=O)cc3S(N)(=O)=O)cc(=O)oc2c1
3. COc1ccc2c(CC(=O)Nc3cccc(S(N)(=O)=O)c3)cc(=O)oc2c1
Descending by Ki please, for everything listed above. Rank the items, then write their labels in that order. 1, 3, 2
(1: 0.087 µM, 3: 0.059 µM, 2: 0.014 µM)
